TEST_PROTOCOL: qHTS RealTime-Glo MT Cell Viability Assay in HepG2 cells - 40 hour (AID 1224870); note: % is set by controls: 0 for no effect and ±100 for the full control effect; nearly all actives have a fitted effect of over 50% in size
SETTINGS: RealTime-Glo luminescence; series mostly up to 76.8 µM
Inconclusive results are not listed. Active and inactive are the calls of the source. Calls come from the whole dose curve; as a rule, active = well fitted cell-killing curve with a large enough effect in the repeat runs; inconclusive = weak or mixed curves, or effect the other way; inactive = flat fitted curve, though single readings scatter.
Bench note: report the call from active, inactive

{"columns": ["COMPOUND", "LABEL_VALUE"],
 "data": [
  ["CCN[C@@H](C)Cc1cccc(C(F)(F)F)c1", "inactive"],
  ["[P]#[In]", "inactive"],
  ["CC(C)c1ccc(O)cc1", "inactive"]
]}

Please state the recorded outcome for this compound: "CCCCS(=O)(=O)Cl"
inactive

Please state the recorded outcome for this compound: "Cc1ccc(S(=O)(=O)N[C@@H](CCCCN)C(=O)CCl)cc1"
inactive

Please state the recorded outcome for this compound: "CC[C@H](N)c1ccccc1"
inactive

Please state the recorded outcome for this compound: COc1cc(CC(C)N)cc(OC)c1OC (stereo not given)
inactive

Please state the recorded outcome for this compound: "CON(C)C(=O)Nc1ccc(Br)c(Cl)c1"
inactive

====

ASSAY_TARGET: Peroxisome proliferator-activated receptor delta (Homo sapiens)
TEST_PROTOCOL: qHTS assay to identify small molecule antagonists of the peroxisome proliferator-activated receptor delta (PPARd) signaling pathway (AID 743215);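 note: cells stimulated with agonist L165041 at 300 nM final during compound exposure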
SETTINGS: HEK293H PPARd-UAS-bla, beta-lactamase FRET ratio, antagonist, 17 h; series mostly up to 62 µM
Records with an inconclusive call do not appear. Active and inactive are the calls of the source. Calls follow the shape of the dose curve; as a rule, active = well fitted inhibition curve with a large enough effect in the signal ratio in the repeat runs (not every such curve was filed as active); inconclusive = weak or mixed curves, or effect the other way; inactive = no such curve, though single readings can be large or run the other way; the % refers to the signal ratio.
Bench note: report the call from True for active, False for inactive

Solved cases below.
{"columns": ["MOLECULE", "LABEL_VALUE"],
 "data": [
  ["CC(C)(C)c1cc(O)ccc1O", "True"],
  ["COc1ccc2c(C(=O)c3ccc(Cl)cc3)c(C)n(CC(=O)O)c2c1", "False"],
  ["Oc1ccc(Cc2ccc(O)cc2)cc1", "False"],
  ["BrCc1ccc(Br)cc1", "False"],
  ["C=CC(=O)OCCN(C)C", "False"]
]}

Please state the recorded outcome for this molecule: "CN(C)CCc1c[nH]c2cccc(OP(=O)(O)O)c12"
False

Please state the recorded outcome for this molecule: OCC(Cl)CCl (stereo not given)
False

====

TEST_PROTOCOL: qHTS assay to test for compound auto fluorescence at 460 nm (blue) in HepG2 cells (AID 720687); note: % is set by controls: 0 for no effect and ±100 for the full control effect
SETTINGS: autofluorescence 405/460 nm, 1 h; series mostly up to 91.3 µM
Calls of active or inactive are those of the source. Calls come from the whole dose curve; as a rule, active = well fitted curve in the direction sought with a large enough effect in the repeat runs; inconclusive = weak or mixed curves; inactive = flat fitted curve, though single readings scatter.
MEASURED_ATTRIBUTE: fluorescence, % of fluorescent control

// worked examples, fluorescence, % of fluorescent control included
{"columns": ["COMPOUND", "fluorescence, % of fluorescent control"],
 "data": [
  ["O=c1[nH]oc2c1CCNC2", "inactive"],
  ["CON(C)C(=O)Nc1ccc(Br)c(Cl)c1", "inactive"],
  ["Cl/C=C/CCl", "inactive"],
  ["CCCCOC(C)=O", "inactive"],
  ["CC(=NC#N)N(C)Cc1ccc(Cl)nc1", "inactive"]
]}

Consider the compound "CCCCCCCCBr" and give its measured fluorescence, % of fluorescent control.
inactive

Consider the compound "CCOC(=O)N(C)N=O" and give its measured fluorescence, % of fluorescent control.
inactive

====

ASSAY_TARGET: Retinoic acid receptor RXR-alpha (Homo sapiens) (UniProt P19793)
Sequence (P19793 whole entry, looked up): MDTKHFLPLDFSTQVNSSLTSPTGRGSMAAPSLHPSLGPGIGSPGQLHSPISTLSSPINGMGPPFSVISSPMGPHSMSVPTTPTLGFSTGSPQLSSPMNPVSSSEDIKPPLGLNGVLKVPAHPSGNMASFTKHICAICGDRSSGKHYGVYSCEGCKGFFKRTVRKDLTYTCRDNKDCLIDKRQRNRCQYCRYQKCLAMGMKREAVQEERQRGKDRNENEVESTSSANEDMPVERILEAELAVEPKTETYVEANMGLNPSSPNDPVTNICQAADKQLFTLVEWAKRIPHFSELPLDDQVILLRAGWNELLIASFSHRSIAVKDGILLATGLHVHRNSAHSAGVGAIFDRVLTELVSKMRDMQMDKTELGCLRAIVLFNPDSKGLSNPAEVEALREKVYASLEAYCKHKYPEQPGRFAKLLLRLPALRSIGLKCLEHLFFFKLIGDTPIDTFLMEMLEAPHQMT
TEST_PROTOCOL: qHTS assay to identify small molecule agonists of the RXR signaling pathway (AID 1159527); note: nearly all actives have a fitted effect of over 35% in size
SETTINGS: HEK293T RXRa-UAS-bla, beta-lactamase ratio, 16 h; series mostly up to 76.8 µM
Inconclusive results are not listed. The source made the active and inactive calls. The call rests on the fitted dose curve.
Bench note: report the call from true (1) = active, false (0) = inactive

{"columns": ["COMPOUND", "ASSAY_TARGET", "LABEL_VALUE"],
 "data": [
  ["CNC(=O)NC(O)C(Cl)(Cl)Cl (centres undefined)", "Retinoic acid receptor RXR-alpha (Homo sapiens) (UniProt P19793)", "false (0)"],
  ["S=C=S", "Retinoic acid receptor RXR-alpha (Homo sapiens) (UniProt P19793)", "false (0)"],
  ["O=C(O)C(Br)(Br)Br", "Retinoic acid receptor RXR-alpha (Homo sapiens) (UniProt P19793)", "false (0)"],
  ["CC[C@@H](CO)NC(=O)[C@@H]1C=C2c3cccc4[nH]cc(c34)C[C@H]2N(C)C1", "Retinoic acid receptor RXR-alpha (Homo sapiens) (UniProt P19793)", "false (0)"],
  ["C[C@H](N)C(=O)c1ccccc1", "Retinoic acid receptor RXR-alpha (Homo sapiens) (UniProt P19793)", "false (0)"],
  ["CNC(=O)Oc1ccccc1C(C)C", "Retinoic acid receptor RXR-alpha (Homo sapiens) (UniProt P19793)", "true (1)"]
]}

Please state the recorded outcome for this compound: "C1CN2CCC1CC2"
false (0)

Please state the recorded outcome for this compound: "CC(C)[N+](C)(CCC(C(N)=O)(c1ccccc1)c1ccccc1)C(C)C"
false (0)

Please state the recorded outcome for this compound: "COc1cc(CCN)cc(OC)c1OC"
false (0)

Please state the recorded outcome for this compound: "CCN[C@H](C)Cc1cccc(C(F)(F)F)c1"
false (0)

====

TEST_PROTOCOL: qHTS assay for identifying genotoxic compounds that show differential cytotoxicity against isogenic chicken DT40 cell lines with known DNA damage response pathways - Rad54/Ku70 mutant cell line (AID 743015); note: nearly all actives have a fitted effect of over 60% in size
SETTINGS: DT40 Rad54/Ku70 mutant viability, CellTiter-Glo, 40 h; series mostly up to 66.8 µM
Text: National Center for Advancing Translational Sciences [NCATS] NIH Chemical Genomics Center [NCGC] U.S. Environmental Protection Agency [EPA] National Institutes of Environmental Health Sciences [NIEHS] National Toxicology Program [NTP] U.S. Food and Drug Administration [FDA] DNA repair pathways play a critical role in cellular homeostasis by repairing DNA damage induced by endogenous processes and xenobiotics. […]
Results filed as inconclusive are left out. Activity calls are given as the source filed them. Calls follow the shape of the dose curve; as a rule, active = well fitted cell-killing curve with a large enough effect in the repeat runs; inconclusive = weak or mixed curves; inactive = no such curve, though single readings can be large or run the other way.
Bench note: report the call from active, inactive

{"columns": ["COMPOUND", "LABEL_VALUE"],
 "data": [
  ["CS(=O)(=O)c1ccc(C(=O)C2C(=O)CCCC2=O)c(Cl)c1COCC(F)(F)F", "inactive"],
  ["OP(O)c1ccccc1", "inactive"],
  ["C[C@]12C=CC(=O)C=C1CC[C@@H]1[C@@H]2CC[C@@]2(C)[C@H]1CC[C@]2(C)O", "active"],
  ["NC(=O)CS(=O)C(c1ccccc1)c1ccccc1 (centres undefined)", "inactive"],
  ["CCSC(=O)Cl", "inactive"]
]}

Please state the recorded outcome for this compound: C=CC1(C)OC(=O)N(c2cc(Cl)cc(Cl)c2)C1=O (centres undefined)
active

====

TEST_PROTOCOL: qHTS assay to identify small molecule antagonists of the glucocorticoid receptor (GR) signaling pathway - cell viability counter screen (AID 720693); note: % is set by controls: 0 for no effect and ±100 for the full control effect; nearly all actives have a fitted effect of over 55% in size
SETTINGS: GR-bla HeLa viability, CellTiter-Glo luminescence, 18 h, with 5 nM dexamethasone present; series mostly up to 58.5 µM
Records with an inconclusive call do not appear. Active and inactive are the calls of the source. Calls follow the shape of the dose curve; as a rule, active = well fitted cell-killing curve with a large enough effect in the repeat runs; inconclusive = weak or mixed curves, or effect the other way; inactive = no such curve, though single readings can be large or run the other way.
MEASURED_ATTRIBUTE: viability change, negative = cytotoxic

{"columns": ["COMPOUND", "viability change, negative = cytotoxic"],
 "data": [
  ["CC1NCCOC1c1ccccc1 (stereo not drawn)", "inactive"],
  ["O=C(Cl)/C=C/C(=O)Cl", "inactive"],
  ["CCOC(=O)NC(C)(C)Cc1ccc(Cl)cc1", "inactive"],
  ["C=CCCC#N", "inactive"],
  ["CCC1(CC)C(=O)C=CNC1=O", "inactive"],
  ["O=C(CCl)NCO", "inactive"],
  ["C#CCOC(=O)/C=C(C)/C=C/CC(C)CCCC(C)C (stereo not drawn)", "inactive"]
]}

Please find the next compound below.
Consider the compound "CC(C)(C)C(=O)Cl" and give its measured viability change, negative = cytotoxic.
inactive

====

TEST_PROTOCOL: qHTS assay to identify small molecule agonists of the NFkB signaling pathway (AID 1159509); note: % is set by controls: 0 for no effect and ±100 for the full control effect
SETTINGS: NFkB-bla ME-180 cells, beta-lactamase FRET ratio, 5 h; series mostly up to 61 µM
Inconclusive results are not listed. The source made the active and inactive calls. The call rests on the fitted dose curve; in most records, active means well fitted curve in the direction sought with a large enough effect in the signal ratio in the repeat runs (not every such curve was filed as active); inconclusive means weak or mixed curves, or a change in a side signal; inactive means no such curve, though single readings can be large or run the other way; the % refers to the signal ratio.
MEASURED_ATTRIBUTE: activation

// worked examples, activation included
{"columns": ["COMPOUND", "MEASURED_ATTRIBUTE", "RESULT"],
 "data": [
  ["CCN(CCO)CCn1c(Cc2ccccc2)nc2c1c(=O)n(C)c(=O)n2C", "activation", "inactive"],
  ["CCCCOC(C)=O", "activation", "inactive"],
  ["CCN[C@H](C)Cc1cccc(C(F)(F)F)c1", "activation", "inactive"],
  ["C=CCC1(C(C)CC)C(=O)NC(=O)NC1=O (stereo not drawn)", "activation", "inactive"]
]}

Consider the compound "CCC(=O)c1ccc(Cl)cc1" and give its measured activation.
inactive

Consider the compound "Cn1c(N)nc2c3cccnc3ccc21" and give its measured activation.
inactive

Consider the compound "CCOC(=O)CCl" and give its measured activation.
inactive

Consider the compound "COC[C@@H](NC(C)=O)C(=O)NCc1ccccc1" and give its measured activation.
inactive
